These entries and their values trace back to PubChem BioAssay (NCATS).

- test protocol: qHTS of pediatric cancer cell lines to identify multiple opportunities for drug repurposing: Primary screen for RD cells (AID 1347104); also: nearly all actives have a fitted effect of over 55% in size
- run parameters: RD rhabdomyosarcoma viability, CellTiter-Glo luminescence, 48 h; series mostly up to 46 µM
- Method: Drug repurposing or repositioning has been offered as a strategy for drug development in oncology programs. This approach has special potential for childhood cancers and other rare or orphan diseases, where the expected return on new drug development has been a disincentive to pharmaceuticals. […] We employed a titration-based paradigm (quantitative high-throughput screening or qHTS), where all compounds were tested at multiple concentrations for their effect on cell viability. […]
Inconclusive results are not listed. The source made the active and inactive calls. Calls follow the shape of the dose curve; as a rule, active = well fitted cell-killing curve with a large enough effect; inconclusive = small, poorly fitted or top-dose-only effect; inactive = flat fitted curve, though single readings scatter.
Labels: true (1) = active, false (0) = inactive

compound | answer label
O=C(Nc1ccc(Cl)cc1)Nc1ccc(Cl)c(Cl)c1 | true (1)
CCCCCN(CCCOC)C(=O)C(CCC(=O)O)NC(=O)c1ccc(Cl)c(Cl)c1 (stereo not drawn) | false (0)
CCOC(=O)c1cc(=O)c2c(OCC(COc3cccc4oc(C(=O)OCC)cc(=O)c34)OC(=O)[C@@H](N)CCCCN)cccc2o1 | false (0)
CC(C)C[C@H](NC(=O)CNC(=O)[C@H](Cc1ccc(O)cc1)NC(=O)[C@H](CO)NC(=O)[C@H](Cc1c[nH]c2ccccc12)NC(=O)[C@H](Cc1cnc[nH]1)NC(=O)[C@@H]1CCC(=O)N1)C(=O)N[C@@H](CCCN=C(N)N)C(=O)N1CCC[C@H]1C(=O)NCC(N)=O (stereo in doubt) | false (0)
C[N+](C)(CCOc1ccccc1)Cc1cccs1 | false (0)
COCCOCC(OC)OC | false (0)
O=C(O)[C@H](O)[C@@H](O)[C@H](O[C@@H]1O[C@H](CO)[C@H](O)[C@H](O)[C@H]1O)[C@H](O)CO | false (0)
CCCCCCCCCCCCCCCCCCNC(=O)OC1CCN(C(=O)OC[C@H](COC(=O)N(Cc2cccc[n+]2CC)C(=O)c2ccccc2OC)OC)CC1 | true (1)
CCCc1c2oc(C(=O)O)cc(=O)c2cc2c(=O)cc(C(=O)O)n(CC)c12 | false (0)
CN1CCC(=C2c3ccccc3CCc3cccnc32)CC1 | false (0)
COc1cc(C=O)ccc1O | false (0)
CC(=O)/C=C/C=C1/C2CCC(C2)C1(C)C (stereo not drawn) | false (0)
CC(=O)c1ccc(O)c(C(N)=O)c1 | false (0)
CCOC(=O)N1CCC(Nc2ccc(Cl)cc2N)CC1 | false (0)
CCCC(CCC)(C(=O)OCC)C(=O)OCC | false (0)
CCCCNc1ccc(C(=O)OCCN(CC)CC)cc1 | false (0)
Oc1ccccc1-c1nnco1 | false (0)
Cc1c(N)cccc1C(F)(F)F | false (0)

----------
- Test system: HaCat
- test protocol: Cytotoxic Profiling of Annotated Libraries Using Quantitative High-Throughput Screening (AID 1296008); also: nearly all actives have a fitted effect of over 60% in size
- run parameters: Five cell lines viability, CellTiter-Glo ATP luminescence, 48-72 h
Records with an inconclusive call do not appear. The source made the active and inactive calls. Calls follow the shape of the dose curve; as a rule, active = well fitted inhibition curve with a large enough effect; inconclusive = small, poorly fitted or top-dose-only effect; inactive = flat fitted curve, though single readings scatter.
Labels: active, inactive

compound | answer label
CN1N=C(C(N)=O)CCC1=O | inactive
O=C(c1ccco1)N1CCNCC1 | inactive
Cc1cccc(OCC(O)CNC(C)(C)C)c1C (stereo not drawn) | inactive
COCCOCC(OC)OC | inactive
CC(C)(C)c1cc(C=O)cc(C(C)(C)C)c1O | inactive
N#CSCC(=O)O | inactive
Cc1oc(=O)oc1COC(=O)[C@@H]1N2C(=O)[C@@H](NC(=O)[C@H](N)c3ccccc3)[C@H]2SC1(C)C | inactive
CCn1ccc(NS(=O)(=O)c2ccc(N)cc2)nc1=O | inactive
Cc1ccc(/C=N/n2c(-c3ccccc3)csc2=S)cc1 | inactive
CC(C)Cc1ccc(C(C)C(=O)OCc2ccccn2)cc1 (stereo not drawn) | inactive
CCOC(=O)NNc1ccc(N(CC)CC(C)O)nn1 (stereo not drawn) | inactive
CCCCCCCC(=O)[O-].CCCCCCCC(=O)[O-].[Zn+2] | inactive
Cc1cc(CCCOc2c(C)cc(-c3noc(C(F)(F)F)n3)cc2C)on1 | inactive
CCOc1ncc(F)c(=O)[nH]1 | inactive
O=C(Oc1ccccc1)c1ccccc1O | inactive
O=C(COCCOCCOCC(=O)Nc1c(I)cc(I)c(C(=O)O)c1I)Nc1c(I)cc(I)c(C(=O)O)c1I | inactive
CCCCCCCCCCCCCCCC[n+]1ccccc1 | active
O=C(O)c1ccccc1Nc1cc(Cl)ccc1C(=O)O | inactive
CC(C)NC(=O)c1ccc(C=O)cc1 | inactive
COc1cc(C=O)ccc1O | inactive
CCN(CC)C(=O)C1CN2CCc3cc(OC)c(OC)cc3C2CC1OC(C)=O (stereo not drawn) | inactive
O=C1Nc2cc(Cl)ccc2Oc2ccccc21 | inactive
CN1CCC(=C2c3ccccc3CCc3cccnc32)CC1 | inactive
C/C(=N/NC(=O)c1ccncc1)C(=O)O | inactive
CC(=O)O[C@@H]1CC2C3CCc4cc(OC(=O)c5ccccc5)ccc4C3CCC2(C)[C@H]1OC(C)=O (stereo partly drawn) | inactive
Cc1cc(O)c(C)c(C)c1O | inactive
CN1Cc2cc(C(=O)N3CCC(C4CCNCC4)CC3)ccc2N[C@@H](CC(=O)O)C1=O | inactive
C=C(C)C(=O)OCC(O)CO (stereo not drawn) | inactive
CCOC(=O)NNc1nncc2ccccc12 | inactive
CCOC(=O)C(O)c1ccccc1 (stereo not drawn) | inactive
CCCCCCn1c(=O)c2c(ncn2C)n(C)c1=O | inactive
CC(C)(C)CC(=O)OCC(=O)[C@@]1(O)CC[C@H]2[C@@H]3CCC4=CC(=O)C=C[C@]4(C)[C@H]3[C@@H](O)C[C@@]21C | inactive
CO/N=C(\C(=O)O)c1csc(NC(=O)CCl)n1 | inactive
CC(C)(C)c1nnc(NS(=O)(=O)c2ccccc2)s1 | inactive
O=C(C1CCCCC1)N1CC(=O)N2CCCc3ccccc3C2C1 (stereo not drawn) | inactive
CC(=O)N[C@@H](CCC(N)=O)C(=O)O | inactive
NS(=O)(=O)c1ccc(N2CCCCS2(=O)=O)cc1 | inactive
COc1ccc2c(c1)CCCC2=O | inactive
CCOCCn1c(C2CCN(CCc3ccc(C(C)(C)C(=O)O)cc3)CC2)nc2ccccc21 | inactive
Cc1nc([N+](=O)[O-])cn1-c1ccc([N+](=O)[O-])cc1 | inactive
O=C(OCC(COC(=O)c1cccnc1)(COC(=O)c1cccnc1)COC(=O)c1cccnc1)c1cccnc1 | inactive
Cc1ccc(-c2ccccc2C#N)cc1 | inactive
CN1CCC(Nc2ncc3ncnc(Nc4ccc(F)c(Cl)c4)c3n2)CC1 | active

----------
- test protocol: qHTS of pediatric cancer cell lines to identify multiple opportunities for drug repurposing: Primary screen for SJ-GBM2 cells (AID 1347091)
- run parameters: SJ-GBM2 viability, CellTiter-Glo luminescence, 48 h; series mostly up to 46 µM
Records with an inconclusive call do not appear. The source made the active and inactive calls. Calls come from the whole dose curve; as a rule, active = well fitted cell-killing curve with a large enough effect; inconclusive = small, poorly fitted or top-dose-only effect; inactive = no such curve, though single readings can be large or run the other way.
Labels: t (active), f (inactive)

molecule | answer label
CCCCCCCCCCCC[N+](C)(C)Cc1ccccc1 | f
O=C(Nc1ccc(Cl)cc1)Nc1ccc(Cl)c(Cl)c1 | t
CO[C@@H]1[C@@H](O[C@@H]2O[C@H](C)[C@@H](O[C@H]3C[C@@](C)(O)[C@@H](O)[C@H](C)O3)[C@H](N(C)C)[C@H]2O)[C@@H](CC=O)C[C@@H](C)[C@@H](O[C@@H]2CC[C@H](N(C)C)[C@@H](C)O2)/C=C/C=C/C[C@@H](C)OC(=O)C[C@H]1OC(C)=O | f
O=C(CO)[C@@H](O)[C@H](O)[C@@H](O)CO | f
O=C(O)[C@@H](O)[C@H](O)[C@H](O)[C@@H](O)C(=O)O | f
Nc1c(I)cc(I)c(C(=O)N(CCC(=O)O)c2ccccc2)c1I | f
CN1CCC(Nc2ncc3ncnc(Nc4ccc(F)c(Cl)c4)c3n2)CC1 | f
CCCCN(CCCC)C(C(N)=O)c1ccc(OC)cc1 (centres undefined) | f
CN1Cc2cc(C(=O)N3CCC(C4CCNCC4)CC3)ccc2N[C@@H](CC(=O)O)C1=O | f

----------
- System: JEG-3
- test protocol: Primary qHTS to identify gynecologic anti-cancer compounds using libraries of approved drugs and bioactive compounds (AID 1345084); also: nearly all actives have a fitted effect of over 55% in size; also: potency is read from the fitted curve at half-maximal effect
- run parameters: Gynecologic cancer cell panel viability, ATPlite luminescence, 48 h; series mostly up to 57.5 µM
Inconclusive results are not listed. Activity calls are given as the source filed them. Calls come from the whole dose curve; as a rule, active = well fitted cell-killing curve with a large enough effect; inconclusive = small, poorly fitted or top-dose-only effect, or effect the other way; inactive = flat fitted curve, though single readings scatter.
readout label: Potency

molecule | result
Nc1c[n+](N2CCOCC2)no1 | inactive
Cc1cccc(C)c1NC(=O)c1ccc(N)cc1 | inactive
CO[C@@H]1[C@@H](OC)[C@H](C)[C@@](O)(CC(=O)O)O[C@H]1[C@H](C)[C@H]1O[C@@]2(CC[C@@](C)([C@H]3CC[C@@](C)([C@@H]4O[C@@H]([C@H]5O[C@](C)(O)[C@H](C)C[C@@H]5C)C[C@@H]4OC4C[C@H](OC)[C@@H](OC)[C@H](C)O4)O3)O2)C[C@H](O)[C@H]1C (stereo partly drawn) | 6.31 µM (active)
